TARGET_ENTITY: β-adrenoreceptor (β1) (Rattus norvegicus)
Construct: The right and left atria were then separated; from tissue; host or cells: isolated rat right atrium (spontaneously beating) and left atrium (electrically paced)
Sequence (P18090 whole entry): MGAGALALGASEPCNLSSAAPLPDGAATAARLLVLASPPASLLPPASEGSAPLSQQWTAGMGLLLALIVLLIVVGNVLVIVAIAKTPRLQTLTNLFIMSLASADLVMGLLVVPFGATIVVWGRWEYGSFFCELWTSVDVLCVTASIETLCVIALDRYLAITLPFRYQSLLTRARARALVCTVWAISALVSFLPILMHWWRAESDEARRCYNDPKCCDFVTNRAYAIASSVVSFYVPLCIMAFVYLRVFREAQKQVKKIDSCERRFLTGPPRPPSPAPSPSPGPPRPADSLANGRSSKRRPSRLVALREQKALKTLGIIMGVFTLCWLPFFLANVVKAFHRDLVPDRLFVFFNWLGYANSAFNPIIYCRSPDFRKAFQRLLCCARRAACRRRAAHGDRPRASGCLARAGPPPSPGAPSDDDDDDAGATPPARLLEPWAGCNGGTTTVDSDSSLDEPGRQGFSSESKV
METHOD_DESCRIPTION: Isolated left atrium, L-isoproterenol-induced contractility increase (pA2)
Parameters: species or system Wistar rat
CONDITION_SET: vs L-isoproterenol, electrically stimulated

[
  {
    "COMPOUND": "COC(=O)C1=C(C)NC(C)=C(C(=O)OC)C1c1ccc(OCC(O)CNC(C)(C)C)c(OC)c1 (centres unmarked) [Compound 1]",
    "TARGET_ENTITY": "β-adrenoreceptor (β1) (Rattus norvegicus)",
    "β1 Value of pA2 Left Atrium": 6.91
  },
  {
    "COMPOUND": "CCOC(=O)C1=C(C)NC(C)=C(C(=O)OCC)C1c1cc(Cl)ccc1OCC(O)CNCCOc1ccccc1OC (centres unmarked) [Compound 6]",
    "TARGET_ENTITY": "β-adrenoreceptor (β1) (Rattus norvegicus)",
    "β1 Value of pA2 Left Atrium": 7.01
  },
  {
    "COMPOUND": "COC(=O)C1=C(C)NC(C)=C(C(=O)OC)C1c1ccc(OCC(O)CNCCOc2ccccc2OC)c(OC)c1 (centres unmarked) [Compound 2]",
    "TARGET_ENTITY": "β-adrenoreceptor (β1) (Rattus norvegicus)",
    "β1 Value of pA2 Left Atrium": 6.93
  },
  {
    "COMPOUND": "CCOC(=O)C1=C(C)NC(C)=C(C(=O)OCC)C1c1cc([N+](=O)[O-])ccc1OCC(O)CNCCOc1ccccc1OC (centres unmarked) [Compound 9]",
    "TARGET_ENTITY": "β-adrenoreceptor (β1) (Rattus norvegicus)",
    "β1 Value of pA2 Left Atrium": 7.12
  },
  {
    "COMPOUND": "CCOC(=O)C1=C(C)NC(C)=C(C(=O)OCC)C1c1cc(Cl)ccc1OCC(O)CNC(C)(C)C (centres unmarked) [Compound 4]",
    "TARGET_ENTITY": "β-adrenoreceptor (β1) (Rattus norvegicus)",
    "β1 Value of pA2 Left Atrium": 6.90
  }
]

###

METHOD_DESCRIPTION: Heart rate and blood pressure in living rat
Type: in vivo, Wistar rats
CONDITION_SET: 1 mg/kg via femoral vein, anaesthetized rat
OUTCOME_MEASURE: Lowering of Blood Pressure (mmHg)

[
  {
    "COMPOUND": "CCOC(=O)C1=C(C)NC(C)=C(C(=O)OCC)C1c1cc([N+](=O)[O-])ccc1OCC(O)CNC(C)(C)C (stereo not shown) [Compound 8]",
    "OUTCOME_MEASURE": "Lowering of Blood Pressure",
    "UNITS": "mmHg",
    "READOUT_NUMBER": 80
  },
  {
    "COMPOUND": "CCOC(=O)C1=C(C)NC(C)=C(C(=O)OCC)C1c1cc(Cl)ccc1OCC(O)CNCCOc1ccccc1OC (stereo not shown) [Compound 6]",
    "OUTCOME_MEASURE": "Lowering of Blood Pressure",
    "UNITS": "mmHg",
    "READOUT_NUMBER": 80
  },
  {
    "COMPOUND": "CCOC(=O)C1=C(C)NC(C)=C(C(=O)OCC)C1c1ccc(OCC(O)CNCCOc2ccccc2OC)c(OC)c1 (stereo not shown) [Compound 3]",
    "OUTCOME_MEASURE": "Lowering of Blood Pressure",
    "UNITS": "mmHg",
    "READOUT_NUMBER": 78
  },
  {
    "COMPOUND": "CCOC(=O)C1=C(C)NC(C)=C(C(=O)OCC)C1c1ccc(OCC(O)CNCCOc2ccccc2OC)c(Cl)c1 (stereo not shown) [Compound 7]",
    "OUTCOME_MEASURE": "Lowering of Blood Pressure",
    "UNITS": "mmHg",
    "READOUT_NUMBER": 82
  }
]
